Tested on: SR leukemia
Test: NCI tumour cell line growth inhibition, 48 h
QUANTITY: log10 TGI (log10 of the value in µM)
Values below are the log10 of the recorded TGI, with µM as the unit.

Please review the entries below; each comes with its answer.
Cc1cc(C)c2c(c1)N[S@@](=O)S2: 1.92
Cc1cc2ccc(OC(=O)c3ccc(N=C(N)N)cc3)cc2oc1=O: 1.77
CCCCN=C(N)c1ccc(N2CCCN(c3ccc(C(N)=NCCCC)cc3)CC2)cc1: 0.65

State the recorded log10 TGI for every item in the following list.
1. C=C1C(=O)O[C@H]2C/C(C)=C/CC[C@]3(C)CCC[C@](C)(CC[C@@H]12)O3
2. N#Cc1ccccc1C#C/C=C\C#Cc1ccccc1N

1.35
0.40

* * *

For each entry below, report its TGI value.
System: SK-MEL-28 melanoma
Experiment: NCI tumour cell line growth inhibition, 48 h

CC1=C(C(=O)NCc2ccccc2)C(c2ccccc2C)C(C(=O)NCc2ccccc2)=C(C)N1: > 67.3 µM
C/C(=N\NC(=S)NC(CCC(=O)O)C(=O)O)c1cnccn1 (stereo not given): > 100 µM
O=C(/C=C1\N=C(c2ccccc2)N(c2nc3c(Cl)cc(Cl)cc3s2)C1=O)/C=C/c1ccccc1: > 100 µM
C[C@@H]1CCC2C(C)(C)C(/C=C\C=O)C3(C)OC213 (stereo not given in full): > 100 µM

Turning now to a further record.
// query TGI value for entry COC(=O)C1C(=O)O[C@@H](c2ccc(OC)c(OC)c2OC)C1C(=O)OC (mixture of isomers)
> 100 µM

* * *

Please respond with reported TGI for every item in the list.
System: A498 renal
Experiment: NCI tumour cell line growth inhibition, 48 h
One number for each entry, in µM.

Please review the following examples before continuing.
CC(C)[Si]1(C(C)C)OCC2OC(n3c(C(=O)c4ccccc4)cc(=O)[nH]c3=O)CC2O[Si](C(C)C)(C(C)C)O1 (stereo unspecified): 24.8
Cc1ccc(-c2nc(N3CCNCC3)c3oc(-c4ccccc4)nc3n2)cc1: 28.8
CCN(CC)C(=S)SC1C(=O)NC(=O)NC1=O: 6.06
Cc1ccc(OCC2=NC3S/C(=C/c4ccc([N+](=O)[O-])o4)C(=O)N3N2)cc1 (stereo unspecified): 37.8
CCN(CC)c1ccc2nc3c4ccccc4c(=O)cc-3n(-c3ccccc3)c2c1: 4.59

Pending molecule:
Item under review: OCc1ccc(N2CCc3cc(F)ccc3C2)cc1Cl . Reported TGI?
0.0756

* * *

Could you please report measured TGI for the items listed next?
Tested on: SK-MEL-5 melanoma
Assay: NCI tumour cell line growth inhibition, 48 h
Give bare numbers, in µM.

Worked examples follow.
N#Cc1ccccc1C#C/C=C\C#CC#C/C=C\C#Cc1ccccc1C#N: 27.9
COC(=O)c1cc(NC(=O)c2cc(NC(=O)Cc3c[nH]c4ccccc34)cn2C)cn1C: 63.8
ClCc1ccc(Cn2cnc3c(Cl)ncnc32)cc1: 35.9

Next:
For SK-MEL-5 melanoma, provide TGI of COc1cc(/C=C/C(=O)/C=C/c2cc3ccc(Cl)cc3n(Cc3ccccc3)c2=O)ccc1O please.
3.17

* * *

System: NCI-H522 lung
Assay: NCI tumour cell line growth inhibition, 48 h; in the data active means GI50 below about 0.43 µM; inactive means the rest
Please reply with one of these outcomes: yes (1) = active, no (0) = inactive

Entry CCN(CC)CCC(CNc1ccnc2cc(Cl)ccc12)c1ccccc1 (centres undefined) : call = ?
no (0)

Assay result, entry COc1ccc(C(=O)O[C@H]2[C@H](O[C@H]3[C@@H](O)COC(O[C@H]4C[C@H]5[C@@H]6CC=C7C[C@@H](O)CC[C@]7(C)[C@H]6CC[C@]5(C)[C@H]4[C@H](C)C(=O)CCC(C)C)[C@@H]3OC(C)=O)OC[C@@H](O)[C@@H]2O)c(C)c1 (some centres undefined) — outcome?
yes (1)

Dear colleague, could you share the recorded outcome for O=C(Nc1ccc(-n2ccc3c(NC(=O)c4ccccc4)nccc32)cc1)Nc1cccc(C(F)(F)F)c1 when you have a moment?
no (0)

I'd appreciate the recorded outcome for Nc1nnnc2nc[nH]c12 from this test.
no (0)

* * *

Test system: SNB-75 CNS
Assay: NCI tumour cell line growth inhibition, 48 h; in the data active = GI50 below about 0.43 µM; inactive = the rest
# output must be one of true (1) for active, false (0) for inactive

Use these answered entries as a reference point.
CN1CCN(c2ccc(NC(=O)c3cncnc3Nc3ccc(OCc4cccc(F)c4)c(Cl)c3)cc2)CC1: false (0)
COc1ccc(-c2[nH]nc(N)c2-c2cc(OC)c3c(c2)OCO3)cc1: false (0)
CCN(CC)CCC(CNc1ccnc2cc(Cl)ccc12)c1ccccc1 (centres undefined): false (0)
CC(c1ccccc1)[C@@H](C(=O)Nc1ccc(I)cc1F)N1C(=O)N[C@H](c2ccc(OC[C@H](O)CO)cc2)C1=O (some centres undefined): false (0)

Lab log entry: O=C(Nc1ccc(-n2ccc3c(NC(=O)c4ccccc4)nccc32)cc1)Nc1cccc(C(F)(F)F)c1 — outcome as called in the assay?
false (0)

Hey, what did the test say about COc1ccc(Cn2cc3c(c2)-c2oncc2CC3)cc1OC ?
true (1)

Please share the test call associated with C=C1C(=O)O[C@H]2[C@H]1CC/C(Cn1cc(-c3cccc(Cl)c3)nn1)=C\CC[C@@]1(C)O[C@@H]21 .
false (0)

What did this assay record as the result for COc1ccc2nc3cc([N+](=O)[O-])ccc3c(NNc3ccccc3)c2c1 ?
false (0)

# fetch the recorded call for Cc1ccc(/C=C/c2c(C(=O)/C=C/c3ccc(Cl)cc3)c(C)nc3ccccc23)cc1 here
false (0)

* * *

Please respond with reported TGI for every item in the list.
Test system: HOP-92 NSCLC
Assay: NCI tumour cell line growth inhibition, 48 h

Cc1cc(C)c2c(c1)CC1(Cc3ccc(C)c(C)c3C1=O)C2=O (stereo unspecified): > 100 µM

Please go through the list and note TGI for each molecule.
1. O=C1C=CC(=Nc2cccc3c(N=C4C=CC(=O)O4)cccc23)O1
2. O=[N+]([O-])c1ccc(C2=NOC(c3ccc(Cl)cc3)N2C23CC4CC(CC(C4)C2)C3)cc1 (stereo unspecified)
3. CCOCC(=O)N(C)c1cccc2c3c(n(C)c12)CCCCC3
4. CCCCCC[C@@H](C)Nc1nc2ccccc2c2occc12
5. N#Cc1ccccc1C#C/C=C\C#CC#C/C=C\C#Cc1ccccc1C#N
6. COc1ccc(-c2ccccc2)c2[nH]c3c(c12)CCNC3=O
7. COc1ccc(C(=O)O[C@H]2[C@H](O[C@H]3[C@@H](O)COC(O[C@H]4C[C@H]5[C@@H]6CC=C7C[C@@H](O)CC[C@]7(C)[C@H]6CC[C@]5(C)[C@H]4[C@H](C)C(=O)CCC(C)C)[C@@H]3OC(C)=O)OC[C@@H](O)[C@@H]2O)c(C)c1 (stereo partly specified)

["> 100 µM", "> 100 µM", "> 100 µM", "27.2 µM", "> 100 µM", "> 100 µM", "0.0866 µM"]

Would you mind listing TGI for each of the following molecules?
1. CCCCOCOc1ccccc1P1(=O)COc2ccccc2OC1
2. CCOC(=O)c1c(-c2cccc(Cl)c2)c(C(=O)OC)c(C)c2sc(C=O)nc12

> 100 µM
34.2 µM

// query TGI value for entry COc1cccc(/C=C/c2ccnc3ccccc23)c1OC
> 10 µM

* * *

Test system: SK-MEL-5 melanoma
Test: NCI tumour cell line growth inhibition, 48 h
QUANTITY: TGI

Your task in this section: give TGI for each listed record.
1. CCCCCC[C@@H](C)Nc1nc2ccccc2c2occc12
2. CN(C)/C=N\c1nncc2[nH]cnc12
3. Oc1cc(CN2CCOCCOCCOCCOCC2)c(O)cc1CN1CCOCCOCCOCCOCC1
4. C=C1C(=O)O[C@H]2[C@H]1CC/C(Cn1cc(-c3cccc(Cl)c3)nn1)=C\CC[C@@]1(C)O[C@@H]21
5. COc1cc(/C=N/c2ccccn2)cc(OC)c1OC
6. Cc1ccc(-c2nc3cc(Cl)c(Cl)cc3nc2C#N)cc1
7. O/C(=C\c1nc2ccccc2nc1/C=C(\O)c1ccc(F)cc1)c1ccc(F)cc1

1: 18 µM; 2: > 100 µM; 3: > 100 µM; 4: 3.08 µM; 5: > 100 µM; 6: > 100 µM; 7: > 100 µM

* * *

Tested on: NCI-H460 lung
A correct response names exactly one class from class 1 = active, class 0 = inactive

Examples from the recorded data:
O=C(Nc1ccc(-n2ccc3c(NC(=O)c4ccccc4)nccc32)cc1)Nc1cccc(C(F)(F)F)c1: class 0
COc1ccc2nc(-c3ccccc3)cc(Nc3cccc(C(C)=O)c3)c2c1: class 0
Cc1ccc(Cl)cc1NC(=O)c1cc2ccccc2cc1O: class 1
NC(=O)CC1(O)C=C(Br)C(=O)C(Br)=C1: class 0
CC1C(=O)c2cc3c(cc2CCN(C)Cc2c1ccc1c2OCO1)OCO3 (stereo not given): class 0
O=C(Cc1csc2nc(-c3ccc(Cl)cc3)cn12)N/N=C/c1ccccc1O: class 0
CCN(CC)c1ccc2nc3c4ccccc4c(=O)cc-3n(-c3ccccc3)c2c1: class 0
Clc1ccc2ncc(-c3cccc(NC4CNC4)n3)n2c1: class 0
Cc1ccc(-c2nc3cc(Cl)c(Cl)cc3nc2C#N)cc1: class 0
NC1=NC(=O)/C(=C/c2ccc3ncccc3c2)S1: class 0

Could you check what this test reported for CCCCCCCCCCCCCCCCCCOc1ccccc1CC(=O)OCC[N+](CC)(CC)CC ?
class 0

Kindly provide the recorded test outcome for the following molecule: O=C(Nc1cccc(-n2cc(-c3ccncc3)c(-c3ccc(O)c(Cl)c3)n2)c1)c1cc(C(F)(F)F)cc(C(F)(F)F)c1
class 0

Sourced from PubChem BioAssay (NCI)
